Value source: patent EP0908457B1

Tested on: Monochoria vaginalis, Presl.
Test: Preemergence weed control under flooded paddy conditions, MOOVA (Monochoria); also: meaning of each grade not given here
Assay type: in vivo
Settings: Rate 0.0620 kg/ha; preemergence weeds, flooded paddy; rated three to four weeks after treatment
# reported herbicidal effect rating, MOOVA; entries follow

Q. I am curious: what herbicidal effect rating, MOOVA value has been reported for Cn1c(C(F)(F)F)cc(=O)n(-c2ccc3snc(CN=C=S)c3c2)c1=O [Example 311] ?
A. 9.0

----------
System: Echinochloa oryzoides (Ard.) Fritsch.
Test: Postemergence weed control under flooded paddy conditions, ECHORC (Watergrass (Calif.))
Type: in vivo
Conditions: Rate 0.1250 kg/ha, rated three to four weeks after treatment
# reported herbicidal effect rating, ECHORC; entries follow
Lab note: jot down the number only; don't add units.

Record excerpt, results attached:
Q. I am curious: what herbicidal effect rating, ECHORC value has been reported for COc1ccc(OC)c(-c2nsc3ccc(-n4c(=O)cc(C(F)(F)F)n(C)c4=O)cc23)c1 ?
A. 9.0

Q. I am curious: what herbicidal effect rating, ECHORC value has been reported for CC(C)Oc1cccc(-c2nsc3ccc(-n4c(=O)cc(C(F)(F)F)n(C)c4=O)cc23)c1 ?
A. 9.0

Q. I am curious: what herbicidal effect rating, ECHORC value has been reported for Cn1c(C(F)(F)F)cc(=O)n(-c2ccc3snc(-c4ccccc4)c3c2)c1=O ?
A. 9.0

Proceeding to the next compound to report its herbicidal effect rating, ECHORC.
Q. I am curious: what herbicidal effect rating, ECHORC value has been reported for COC(=O)C(C)Oc1ccc(C)cc1-c1nsc2ccc(-n3c(=O)cc(C(F)(F)F)n(C)c3=O)cc12 (stereo not shown) ?
A. 0.0
